Recorded IC50 values for a group of molecules are listed next.
- Test system: HUVEC
- ASSAY_OVERVIEW: Metabolic activity assessment (cytotoxicity), HUVEC
- Assay type: cell-based
- RUN_PARAMETERS: Homo sapiens, metabolic activity after 72 h treatment

SMILES_STRING	ASSAY_SYSTEM	IC50
COc1ccc2nccc(CCN3CCC(NCc4ccc(C(F)(F)F)nc4)CC3)c2n1	HUVEC	> 50 µM
COc1ccc2nccc(CCN3CCC(NCc4nc5ccccc5n4C)CC3)c2n1	HUVEC	> 50 µM
COc1ccc2nccc(CCN3CCC(NCc4cnn(-c5ccccc5)n4)CC3)c2n1	HUVEC	39.4 µM
COc1ccc2nccc(CCN3CCC(NCc4c(C)nc5c(C)cccn45)CC3)c2n1	HUVEC	> 50 µM
COc1ccc(CNC2CCN(CCc3ccnc4ccc(OC)nc34)CC2)cn1	HUVEC	> 50 µM
